This section presents molecules with their documented z-score values.
- procedure.summary: A549 lung cancer cell viability effects, profiling panel, resazurin fluorescence, 24 h, PK04 Diversity Set (AID 1171); note: test concentration not given here
- condition.label: higher = more signal, called active from +8 up or from −8 down
# print the numeric value only

Need z-score, item "O=C1N(Cc2ccccc2)c2ccccc2[C@@H]2OC(c3ccc(OCCCO)cc3)=N[C@]12CCS(=O)(=O)c1ccccc1" 0.404

Need z-score, item "Cc1ccc(S[C@]2(C(=O)NCCCN(C)C)CC(=O)N(Cc3cc(C(F)(F)F)cc(C(F)(F)F)c3)[C@@H]2c2ccc(CO)cc2)cc1" -0.106

Need z-score, item "C=C(C(=O)CC[C@@H](OC(=O)c1cccnc1)c1ccccc1OCCO)C(C)C" -0.414

Need z-score, item "CCOC(=O)[C@H]1C/C=C/C[C@H](C(=O)OCC)C(=O)O[C@H]2[C@@H](OC)O[C@H](CO)[C@@H](OC(=O)c3c(OC)cccc3OC)[C@@H]2OC1=O" -4.38

Need z-score, item "COC(=O)[C@@]1(Cc2ccc(OC)cc2)[C@H]2c3cc(C(=O)N(C)C)n(CCc4ccccn4)c3C[C@H]2CN1C(=O)c1ccccc1" -0.735

Need z-score, item "COc1ccc([Si](C)(C)[C@@H]2[C@@H](CC(=O)N3CCC[C@H]3CO)O[C@]3(C(=O)N(c4ccccc4)c4ccccc43)[C@H]2C)cc1" 1.13

Need z-score, item "C=CC[C@]1(C(=O)NCc2ccccc2)N=C(c2ccc(OCCCO)cc2)O[C@H]1c1ccccc1N=[N+]=[N-]" -0.888
